B1: VDR (parent)
chain: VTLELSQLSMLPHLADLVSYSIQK

variants of: B1; assay: protein stability index of a GFP-peptide fusion (GPS, HEK-293T) (PSI 1-6); higher = more stable; conditions: c terminus: a fixed tail appended;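 note: lentivirally expressed fusions sorted by FACS into six bins by GFP to DsRed ratio, PSI derived from sequencing read proportions per bin multiplied by bin number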
Recorded protein stability index for the following variants
measure name: protein stability index

L5K ... 1.85
E4N ... 2.66
H13E ... 3.51
A15K ... 2.64
D16H ... 3
V18C ... 4.49
Y20E ... 2.97
K24Y ... 3.25
L14Q ... 2.22
H13F ... 2.48
E4F ... 2.88
L5E ... 1.71
S9C ... 2.37
S19R ... 3.25
M10S ... 1.96
T2W ... 2.48
H13V ... 1.98
Q23C ... 2.33
I22E ... 1.92
Q7D ... 2.45
H13A ... 2.64
Q23G ... 2.84
L17T ... 2.47
P12A ... 2.4
M10F ... 1.99
Q23N ... 2.07
K24C ... 2.39
L14G ... 1.71
